meta.source: ChEMBL document CHEMBL1143159

MEASURED ON: Segment polarity protein dishevelled homolog DVL-3 (Homo sapiens)
Sequence (Q92997 whole entry, the tested form may be a part): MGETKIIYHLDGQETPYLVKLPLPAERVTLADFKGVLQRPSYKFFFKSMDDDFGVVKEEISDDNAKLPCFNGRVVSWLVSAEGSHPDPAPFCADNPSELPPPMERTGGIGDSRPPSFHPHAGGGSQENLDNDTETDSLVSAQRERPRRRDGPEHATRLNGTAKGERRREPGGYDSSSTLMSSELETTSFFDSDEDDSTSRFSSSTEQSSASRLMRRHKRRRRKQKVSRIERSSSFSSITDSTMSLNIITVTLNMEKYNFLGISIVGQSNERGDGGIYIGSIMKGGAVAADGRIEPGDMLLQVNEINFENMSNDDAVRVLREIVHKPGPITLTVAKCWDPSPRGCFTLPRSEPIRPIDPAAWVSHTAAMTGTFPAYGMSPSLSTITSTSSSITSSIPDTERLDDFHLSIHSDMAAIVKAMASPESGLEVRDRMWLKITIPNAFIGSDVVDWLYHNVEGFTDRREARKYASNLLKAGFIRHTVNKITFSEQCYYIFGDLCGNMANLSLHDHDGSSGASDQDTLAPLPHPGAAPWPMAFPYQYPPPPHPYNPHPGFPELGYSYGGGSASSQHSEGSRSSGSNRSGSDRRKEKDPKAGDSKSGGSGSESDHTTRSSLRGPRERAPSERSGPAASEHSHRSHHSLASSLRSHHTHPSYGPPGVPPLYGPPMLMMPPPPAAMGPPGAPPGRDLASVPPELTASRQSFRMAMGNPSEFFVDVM
PROCEDURE SUMMARY: Antagonist activity at human Dvl3 assessed as inhibition of interaction between Dvl3 PDZ domain and […] by alphaScreen assay
Field 'label' (enum: t / f). Set to t when IC50 is strictly under 90 µM; else f.

Observe how each entry below is paired with its result.
{"columns": ["MOLECULE", "DISCRETE LABEL"],
 "data": [
  ["CCCNC(=O)c1[nH]c2cc(C)c(C(=O)O)cc2c1CCc1ccccc1", "f"],
  ["COC(=O)c1cc2c(CCc3ccccc3)c(C(=O)NC3CCCCC3)[nH]c2cc1C", "t"],
  ["Cc1cc2[nH]c(C(=O)NCC3CCCCC3)c(CCc3ccccc3)c2cc1C(=O)O", "f"],
  ["CCC(C)CNC(=O)c1[nH]c2cc(C)c(C(=O)O)cc2c1CCc1ccccc1 (stereo not given)", "f"],
  ["Cc1cc2[nH]c(C(=O)NC3CCCCC3)c(CCc3ccccc3)c2cc1C(=O)O", "t"]
]}

Inquiry: Could you please tell me whether IC50 recorded for `Cc1cc2[nH]c(C(=O)NC(C)(C)C)c(CCc3ccccc3)c2cc1C(=O)O` is less than 90 µM?
Reply text: f

Inquiry: Could you please tell me whether IC50 recorded for `Cc1cc2[nH]c(C(=O)NCCC(=O)O)c(CCc3ccccc3)c2cc1C(=O)O` is less than 90 µM?
Reply text: f

Inquiry: Could you please tell me whether IC50 recorded for `Cc1cc2[nH]c(C(=O)NCc3ccccc3)c(CCc3ccccc3)c2cc1C(=O)O` is less than 90 µM?
Reply text: f

Inquiry: Could you please tell me whether IC50 recorded for `Cc1cc2[nH]c(C(=O)NCC3CC3)c(CCc3ccccc3)c2cc1C(=O)O` is less than 90 µM?
Reply text: f
